target: recombinant human CL receptor/RAMP1 (Homo sapiens (Human), UniProt O60894+Q16602); test: recombinant receptor binding assay (125I-hCGRP displacement); conditions: membranes of HEK 293 cells expressing human CL receptor/RAMP1, 10 pM 125I-hCGRP
Sequence (Q16602 23-461): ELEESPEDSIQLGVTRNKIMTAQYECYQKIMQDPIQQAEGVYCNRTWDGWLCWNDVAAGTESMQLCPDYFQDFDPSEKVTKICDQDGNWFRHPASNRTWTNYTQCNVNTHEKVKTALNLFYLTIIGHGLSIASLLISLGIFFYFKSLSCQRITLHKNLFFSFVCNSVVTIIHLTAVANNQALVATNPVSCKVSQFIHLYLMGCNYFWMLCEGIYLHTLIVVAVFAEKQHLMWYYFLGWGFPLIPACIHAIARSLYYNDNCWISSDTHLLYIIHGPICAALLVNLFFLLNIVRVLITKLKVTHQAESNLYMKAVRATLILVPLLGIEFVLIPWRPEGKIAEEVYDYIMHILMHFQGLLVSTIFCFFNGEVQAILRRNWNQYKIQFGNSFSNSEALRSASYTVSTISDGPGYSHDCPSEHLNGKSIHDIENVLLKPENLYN
Sequence (O60894 27-148): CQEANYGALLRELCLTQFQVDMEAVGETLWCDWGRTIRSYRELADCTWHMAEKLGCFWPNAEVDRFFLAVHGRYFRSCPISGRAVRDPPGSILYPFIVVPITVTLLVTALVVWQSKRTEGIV
# maps each entry to its pKi
# pKi = -log10(concentration in molar units)

Solved cases (4 shown):
O=C(Cn1c(=O)n(-c2ccccn2)c2ccccc21)Nc1ccc2c(c1)CC1(C2)N=C(c2cccnc2)NC1=O (centres unmarked) [Example 8] = 6.89
O=C(CN1C(=O)C2(CCCC2)NC[C@H]1c1cc(F)cc(F)c1)Nc1ccc2c(c1)CC1(C2)N=C(c2ccccc2)NC1=O (single isomer, unassigned) [Example 12] = 7.54
O=C(Cn1c(=O)n(-c2ccccn2)c2ccccc21)Nc1ccc2c(c1)CC1(C2)N=C(c2ccncc2)NC1=O (centres unmarked) [Example 9] = 6.80
O=C(Cn1c(=O)n(-c2ccccn2)c2ccccc21)Nc1ccc2c(c1)CC1(C2)N=C(C2CC2)NC1=O (centres unmarked) [Example 3] = 5.59

Now look at this one.
Quick check: pKi of CCCC1=NC2(Cc3ccc(NC(=O)Cn4c(=O)n(-c5ccccn5)c5ccccc54)cc3C2)C(=O)N1 (centres unmarked) [Example 4] ? 5.19

Ref: patent US8569291B2
